// data source = PubChem BioAssay (NCI)

# Test system: SNB-75 CNS
# procedure-summary: NCI tumour cell line growth inhibition, 48 h
// values below are reported TGI
outcome-measure: TGI

O=C(Nc1ccc(Cl)cc1)Nc1ccc(Cl)c(Cl)c1 | > 100 µM
N#CCCN(CCCN(C(=O)Nc1ccccc1)c1ccccc1)C(=O)Nc1ccccc1 | > 100 µM
COC(=O)C(C)Sc1nc2cc(Cl)ccc2s1 (stereo not drawn) | > 100 µM
Cc1cc(S(=O)(=O)Nc2nc(N)nc(N3N=CCC3C)n2)c(S)cc1Cl (stereo not drawn) | > 10 µM
CC1(C)[C@@H]2C[C@H]1c1cnc(-c3ccccn3)cc1C2[C@@H]1c2cc(-c3ccccn3)ncc2[C@@H]2C[C@H]1C2(C)C (stereo partly drawn) | > 100 µM
O=[As](O)(O)c1cc(N=Nc2ccc(-c3ccc(N=Nc4cc([As](=O)(O)O)c(O)cc4O)cc3)cc2)c(O)cc1O | > 100 µM
CSC1SCC2C(=O)N(C)C3(CC3C)C(=O)OCC(NC(=O)c3nc4ccccc4cc3O)C(=O)NC(C)C(=O)N(C)C1C(=O)N(C)C1(CC1C)C(=O)OCC(NC(=O)c1nc3ccccc3cc1O)C(=O)NC(C)C(=O)N2C (stereo not drawn) | < 0.0001 µM
C=CCNC(=S)N1CC(C)C(=O)Nc2ccccc21 (stereo not drawn) | > 100 µM
